Tested on: NCI-H226 lung
Assay: NCI tumour cell line growth inhibition, 48 h
Listed next: entries and their corresponding TGI.

Example cases with answers are listed next.
# compound, TGI
records = [
    ("CCOC(=O)/C=C(/C=C\\COC1CCCCO1)c1ccccc1 (stereo not drawn)", "> 100 µM"),
    ("Cc1cc(Cl)ccc1NC(=O)C(=O)Cc1nc2ccc(C(=O)c3ccccc3)cc2[nH]c1=O", "> 100 µM"),
]

Continue with the compound presented below.
Prompt: Requested field: TGI. Item: "N#Cc1nc(CCCN2C(=O)c3ccccc3C2=O)oc1N"
Completion: > 100 µM

###

Listed next: entries and their corresponding TGI.
System: UO-31 renal
Experiment: NCI tumour cell line growth inhibition, 48 h

Example cases with answers are listed next.
# compound, testedOn, TGI
rows = [
    ("COc1ccc(C2C(Cl)C(=O)N2n2cnc3ccccc3c2=O)cc1OC (stereo unspecified)", "UO-31 renal", "> 100 µM"),
    ("Cc1cc(S(=O)(=O)Nc2n[nH]c(Nc3ccccc3)n2)c(SCC(=O)O)cc1Cl", "UO-31 renal", "> 100 µM"),
    ("CC1(C)O[C@H]2OC3CCC(=O)CC3(O)[C@H]2O1 (stereo partly specified)", "UO-31 renal", "> 100 µM"),
    ("CC(=O)c1cccc(N(/C=C/C(=O)C(F)(F)F)CC(=O)c2ccc(Cl)cc2)c1", "UO-31 renal", "> 100 µM"),
]

Prompt: Requested field: TGI. Item: "CCN(CC)c1ccc(NC(=S)NN(C)C)cc1"
Completion: > 10 µM

Prompt: Then what about the compound "Cn1cc(C2=C(c3cn(C)c4ccc(N)cc34)C(=O)NC2=O)c2ccccc21" ?
Completion: > 25 µM

Prompt: Then what about the compound O=c1[nH]c(=O)n(C2CC(O)C(CO)O2)cc1OC/C=C/Cc1ccccc1 (stereo unspecified) ?
Completion: > 100 µM

Prompt: Then what about the compound "Nc1nncc2[nH]cnc12" ?
Completion: > 100 µM

Prompt: Then what about the compound "Fc1cccc(COc2ccc(Nc3ncnc4sc(-c5ccco5)cc34)cc2Cl)c1" ?
Completion: > 25 µM

Prompt: Then what about the compound CCCCCCCCCCCCOCCOCCOCCOCCOCCOCC(=O)NC(Cc1ccccc1)C(=O)Oc1ccc([N+](=O)[O-])cc1 (stereo unspecified) ?
Completion: > 100 µM

Prompt: Then what about the compound COC(=O)C1=CCON(c2ccccc2)C1c1ccccc1 (stereo unspecified) ?
Completion: > 100 µM

###

System: M14 melanoma
Assay: NCI tumour cell line growth inhibition, 48 h
Listed next: entries and their corresponding log10 of TGI.
Kindly note that the scale is log10 and the underlying TGI is in µM.

# molecule, log10 of TGI
data = [
    ("Cc1cc(N(CCNc2ccnc3cc(Cl)ccc23)Cc2ccc3c(c2)OCO3)nc(N2CCN(C)CC2)n1", 0.55),
    ("Cc1ccc(C(=O)/C(=C/c2ccc([N+](=O)[O-])cc2)S(=O)Cc2ccccc2)cc1 (configuration not stated)", 0.47),
    ("CC1(C)N=C(N)N=C(N)N1c1ccc(CCc2ccccc2)c(Cl)c1", 1.14),
    ("N/C(=N\\OC(=O)c1ccccc1)C(C(=O)NOC(=O)c1ccccc1)C1CCCCC1 (configuration not stated)", 1.36),
    ("Cc1cc(O)c2c(c1)C(O)(c1ccc3c(c1O)C(=O)c1c(O)cc(C)cc1C3(O)C1OC(CO)C(O)C(O)C1O)c1cccc(O)c1C2=O (configuration not stated)", 1.48),
]

Continue with the molecule presented below.
Prompt: Requested field: log10 of TGI. Item: "COc1ccc(-c2cc(-c3ccc(Cl)cc3)c(C#N)c(=O)n2CCCCC(=O)Nc2ccccc2N)cc1"
Completion: 0.91
